This section presents pIC50 values reported for Serine protease 1 (Homo sapiens, UniProt P07477) in the literature.
pIC50: −log10 of the molar value.
Metric: pIC50

Completed entries (count: 3):
[
  {
    "Molecule": "C/C(=C(\\F)C(=O)Nc1ccc(-c2ccccc2S(N)(=O)=O)cc1Br)c1ccc2ccnc(N)c2c1",
    "Metric": "pIC50",
    "Experimental value": 5.62
  },
  {
    "Molecule": "CCCCOC(=O)C(=O)C(NC(=O)[C@@H]1CC[C@H]2CN(S(=O)(=O)Cc3ccccc3)CC(=O)N21)[C@H]1CC[C@H](N)CC1 (stereo not given in full)",
    "Metric": "pIC50",
    "Experimental value": 6.26
  },
  {
    "Molecule": "N=C(N)NCCC[C@@H](NC(=O)OCc1ccccc1)C(=O)NCC(=O)N[C@H]1CCCN(C(=N)N)C1O (stereo in doubt; 1)",
    "Metric": "pIC50",
    "Experimental value": 6.94
  }
]

P. CNC(=O)[C@@H]1C[C@H](N2CCc3c(ncnc3OCCc3ccccc3)C2)CN1C(=O)c1ccc(CN)c(OC)c1
Q. N#Cc1ccc(OC(=O)c2ccc(NC(=N)N)cc2)cc1
## Task Compare pIC50: is it lower for P or for Q ? Please reply using the label of the selected record.
## Result P
(P: 8.30, Q: 8.80)

P. N=C(N)Nc1ccc(C(=O)Oc2ccccc2)cc1
Q. N=C(N)c1cccc(CC(NC(=O)[C@@H]2CC[C@H]3CN(C(=O)CCc4ccccc4)CC(=O)N32)C(=O)c2nc3ccccc3s2)c1 (stereo not given in full)
R. CC(/C=C/C=C/c1ccccc1)=C1/SC(=S)N(CC(=O)O)C1=O
S. CCN(CC)C(=O)c1cccc(-c2ccc3c(c2)C[C@H]2[C@H]3[C@@H](CCCCC(=N)N)C(=O)N2CCCCCc2ccccc2)c1
## Task Output the entries ranked by pIC50 from maximum down to minimum. Respond with an ordered listing of the labels, as requested.
## Result P, Q, S, R
(P: 7.63, Q: 6.01, S: 5.08, R: 4.44)

1. CCCCOc1ccc(OC(=O)c2ccc(NC(=N)N)cc2)cc1
2. COc1cc(C(=O)N2C[C@@H](n3cc(C4CC4)nn3)C[C@H]2C(=O)N2CC[C@H](c3ccccc3)C2)ccc1CN
3. COc1ccc(C[C@H]2C(=O)N(CCCc3ccccc3)CC(=O)N2CC(=O)N[C@@H](CC2CCCN(C(=N)N)C2)C(=O)c2nccs2)cc1 (stereo not given in full)
4. CCCC[C@H]1C(=O)N(CCCc2ccccc2)CC(=O)N1CC(=O)N[C@@H](CC1CCCN(C(=N)N)C1)C(=O)c1nccs1 (stereo not given in full)
## Task Output the entries ranked by pIC50 from maximum down to minimum. Respond with an ordered listing of the labels, as requested.
## Result 1, 2, 3, 4
(1: 7.65, 2: 6.66, 3: 5.42, 4: 4.37)

a. Cn1c(C(=O)[C@H](Cc2cccc(C(=N)N)c2)NC(=O)[C@@H]2CC[C@H]3CN(C(=O)CCc4ccccc4)CC(=O)N32)nc2ccccc21
b. N=C(N)c1ccc(CNC(=O)Cn2c(-c3cccc(N)c3)c(Cl)nc(NC3CCC3)c2=O)cc1
## Task Between a and b , which one shows the larger pIC50 value? Please reply using the label of the selected record.
## Result b

A. CN1CC(=O)N(CC(=O)N[C@@H](CC2CCCN(C(=N)N)C2)C(=O)c2nccs2)[C@@H](Cc2ccc3ccccc3c2)C1=O (stereo not given in full)
B. N=C(N)c1cccc(OC(C(=O)Nc2ccc(-c3ccccc3S(N)(=O)=O)cc2)c2ccccc2)c1 (stereo not given)
C. COC(=O)c1ccccc1CS(=O)(=O)N[C@H]1CCCCN(CC(=O)N[C@H]2CCCN(C(=N)N)C2O)C1=O (stereo not given in full)
D. N=C(N)N1CCCC(C[C@H](NC(=O)CN2C(=O)CN(CCCc3ccccc3)C(=O)[C@H]2Cc2cccc(Cl)c2)C(=O)c2nccs2)C1 (stereo not given in full)
## Task Ascending sort, pIC50. Respond with an ordered listing of the labels, as requested.
## Result A, D, B, C
